Across several studies, molecules have been characterized by their pKd on Macrophage colony-stimulating factor 1 receptor (Homo sapiens); a selection follows.
pKd: −log10 of the molar value.

In [3]: df
Out[3]:
                                   molecule                       experimental_system  attribute_measured  experimental_value
0  Nc1ccc(-c2ccc(CC(=O)Nc3cc(C4(C(F)(F)F)CCC4)on3)cc2)c(F)n1  Macrophage colony-stimulating factor 1 receptor (Homo sapiens)                 pKd              ≥ 8.00

Which pKd value belongs to CCN(CC)Cc1cccc(C(=O)Nc2ccc(NC(=O)Nc3cc(C(C)(C)C)on3)cc2)n1 ?
< 8.00

Next entry: CN1C(COc2ccc(C(=O)Nc3ccc(NC(=O)Nc4cc(C(C)(C)C)on4)cc3)nc2)CCC1(C)C (centres unmarked)
8.00 to 8.52

Next entry: CN1C(C)(C)CC(=CCNc2ccc(-c3ccc(CC(=O)Nc4cc(C(C)(C)C)on4)cc3)cn2)CC1(C)C
≥ 8.00

Next entry: CC(C)(C)c1cc(NC(=O)Nc2ccc(NC(=O)c3ccc(OC4CCN(C5COC5)C4)cn3)cc2)no1 (centres unmarked)
> 8.52

Next entry: COc1cc2nccc(Oc3ccc(NC(=O)c4nn(C(C)C)c(C)c4OCC(F)(F)F)nc3)c2cc1OC
6.30 to 7.00

Next entry: CC(C)(C)c1cc(NC(=O)Nc2ccc(-c3cnc4c(c3)OCC(CCO)N4)cc2)no1 (centres unmarked)
≥ 8.00

Next entry: CC(C)(C)c1cc(NC(=O)Cc2ccc(-c3ccc(N)nc3)cc2F)no1
≥ 8.00
